B1: TPR 5TU (parent)
chain: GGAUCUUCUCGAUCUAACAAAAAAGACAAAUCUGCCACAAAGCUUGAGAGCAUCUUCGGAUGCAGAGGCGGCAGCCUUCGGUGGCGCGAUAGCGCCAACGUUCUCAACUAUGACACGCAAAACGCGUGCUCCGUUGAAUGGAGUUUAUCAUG

Variants of: B1
Assay: polymerase ribozyme fitness, log enrichment relative to wild type (log ratio); higher = more active; in vitro selection for triplet polymerase activity
This sample holds only a part of the variants without activity.
Exercise: state measured polymerase ribozyme fitness (log ratio) for each of the variants provided.

Known polymerase ribozyme fitness (log ratio) results, listed for orientation:
C5G C38A A39C A60U A73G G94U U104A A138U ... ≤ -4.2
G50U C69U C99U ... -3.41
A23U U53A C96A C114G G143A U146G ... ≤ -4.2

Your task in this section: give polymerase ribozyme fitness (log ratio) for each listed record.
1. C38U C75A G80U
2. G58U G86C

output:
1: -4.14; 2: -1.98

Your task in this section: give polymerase ribozyme fitness (log ratio) for each listed record.
1. A20C U56G G92U
2. A91C A150G
3. U7G G11U A16G A24C U31G G34U A98G G117C
4. G80C G83A A110U
5. U53G U77G C129A A147C

output:
[-0.962, "≤ -4.2", "≤ -4.2", "≤ -4.2", "≤ -4.2"]
